Origin of values: paper PMC5540273

system: PAK1; conditions: concentration: 1 μM, replicates: in singlicate; n = 1;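 note: KINOMEscan kinase panel screen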
Could you please report measured %Inh for the items listed next?
Unit % implied. Number only.

Q) Query: %Inh; subject: COC(=O)c1cccc(NC(=O)NC2CCN(c3ccnc(Nc4ccc(OC)cc4)n3)C2)c1 (stereo not drawn) [GSK1379746]
A) 0

Q) Query: %Inh; subject: Nc1nccc(-c2c(-c3ccc(F)cc3)ncn2C2CCN(Cc3ccccc3)CC2)n1 [SB-219980]
A) 0

Q) Query: %Inh; subject: CC(C)c1ccc(O)cc1Nc1ccnc2ccc(C(F)(F)F)cc12 [GW482059]
A) 0

Q) Query: %Inh; subject: CCn1c(-c2c(N)noc2C)nc2cnccc21 [SB-737856]
A) 27

Q) Query: %Inh; subject: Cc1c(Cn2c(C)c(C)n3c(=O)cc(N4CCOCC4)nc23)cccc1C(F)(F)F [GSK2328680]
A) 0

Q) Query: %Inh; subject: Cc1ccc(NC(=O)Nc2ccc(Cl)cc2)cc1-c1ccc(C(=O)Nc2ccncc2)cc1 [GSK1398472]
A) 0

Q) Query: %Inh; subject: COc1ccc2cc(-c3nc(-c4ccccc4C(C)C)[nH]c3-c3ccncc3)ccc2c1 [SB-660566]
A) 25

Q) Query: %Inh; subject: O=C(Nc1n[nH]c2nc(-c3cccs3)c(Br)cc12)C1CC1 [SB-735297]
A) 0

Q) Query: %Inh; subject: COc1ccc(Nc2nccc(N3CCC(NC(=O)c4cc5ccccc5s4)C3)n2)cc1 (stereo not drawn) [GSK1379738]
A) 2

====

system: FGFR4; conditions: concentration: 1 μM, replicates: in singlicate; n = 1
readout.name: %Inh (%)
Unit % implied. Number only.

Q) Query: %Inh; subject: `CSc1ccc(-c2nc3n(c2-c2ccncc2)CCC3)cc1`
A) 0

Q) Query: %Inh; subject: `Cn1cncc1-c1cc2c(Nc3ccc(OCc4ccccc4)cc3)ncnc2cn1`
A) 12

Q) Query: %Inh; subject: `CNc1nc(-c2ccc3c(N)n[nH]c3c2)cc(N2C[C@@H](C(=O)NC3CCCCC3)OC[C@H]2C)n1`
A) 7

Q) Query: %Inh; subject: `CCCCc1nn2ncccc2c1-c1ccnc(NC2CC2)n1`
A) 0

Q) Query: %Inh; subject: COc1ccc(Nc2nccc(N3CCC(NC(=O)C(C)c4ccc(Cl)cc4)CC3)n2)cc1 (stereo not drawn)
A) 4

Q) Query: %Inh; subject: `COc1ccc(CSc2nnc(-c3ccc4ncsc4c3)o2)cc1C(F)(F)F`
A) 0

Q) Query: %Inh; subject: `CN1c2ccc(-c3ccc(C(N)=O)cc3)cc2-c2[nH]ncc2S1(=O)=O`
A) 0

Q) Query: %Inh; subject: `Fc1ccc(-c2nc3n(c2-c2ccncc2)CCS3)cc1`
A) 0

Q) Query: %Inh; subject: COC(=O)c1cccc(NC(=O)NC2CCN(c3ccnc(Nc4ccc(OC)cc4)n3)C2)c1 (stereo not drawn)
A) 4

Q) Query: %Inh; subject: `Cc1ccccc1-c1cc(-c2c[nH]nc2-c2ccccn2)ccn1`
A) 0

Q) Query: %Inh; subject: `Cc1cnc(N)c(/C=C/c2cncc(C(=O)NCCc3ccc(Cl)cc3Cl)c2)c1.Cl`
A) 6

Q) Query: %Inh; subject: COC(=O)C(NC(=O)NC1CCN(c2ccnc(Nc3ccc(F)cc3)n2)C1)c1ccccc1 (stereo not drawn)
A) 19

Q) Query: %Inh; subject: `COc1nccc(-c2c(-c3ccc(F)cc3)ncn2CCCN2CCOCC2)n1`
A) 0

Q) Query: %Inh; subject: CC(=O)c1cccc(NC(=O)NC2CCN(c3ccnc(Nc4ccc(F)cc4)n3)C2)c1 (stereo not drawn)
A) 11

Q) Query: %Inh; subject: COc1ccc(Nc2nccc(N3CCC(NC(=O)C(C)c4ccc(Cl)cc4)C3)n2)cc1 (stereo not drawn)
A) 3

Q) Query: %Inh; subject: `COc1ccc(CSc2nnc(-c3ccc4nccn4c3)o2)cc1C(F)(F)F`
A) 0

Q) Query: %Inh; subject: `Nc1nccc(-c2c(-c3ccc(F)cc3)ncn2C2CCN(Cc3ccccc3)CC2)n1`
A) 0

Q) Query: %Inh; subject: `CCc1ccc(-c2ccc3c(c2)-c2n[nH]cc2S(=O)(=O)N3C)cc1`
A) 0
